Tested on: Mus musculus
protocolNotes: Nootropic activity in Albino mouse assessed as quick escape from restricting factor in aversive environment at […], po administered through intragastric tube measured after 7 days by conditioned avoidance test
Type: functional, organism-based
conditionSummary: time 7.0 day
Activity calls are given as the source filed them. The rule behind the calls is not given here.
propertyName: Activity

[[record]]
compound = "CCCC(C)c1c(O)nc(SCCN(CC)CC)[nH]c1=O.Cl (centres undefined)"
reportedmeasurement = "inactive"

[[record]]
compound = "CCCC(C)c1c(O)nc(SCCN(C)C)[nH]c1=O (centres undefined)"
reportedmeasurement = "Active"

[[record]]
compound = "CSCCc1c(O)nc(SCCN2CCCCC2)[nH]c1=O"
reportedmeasurement = "inactive"

[[record]]
compound = "CC(C)CCc1c(O)nc(SCCN(C)C)[nH]c1=O"
reportedmeasurement = "inactive"

[[record]]
compound = "CSCCSc1nc(O)c(C(C)C)c(=O)[nH]1"
reportedmeasurement = "inactive"

[[record]]
compound = "CCN(CC)CCSc1nc(O)c(CCSC)c(=O)[nH]1"
reportedmeasurement = "Active"

[[record]]
compound = "CC(C)c1c(O)nc(SCCN(C)C)nc1O"
reportedmeasurement = "inactive"

[[record]]
compound = "CC(C)c1c(O)nc(N2CCSCC2)[nH]c1=O"
reportedmeasurement = "Active"

[[record]]
compound = "CC(C)CCc1c(O)nc(SCCN2CCCCC2)[nH]c1=O"
reportedmeasurement = "Active"


###

Test system: Mus musculus
protocolNotes: Anxiolytic activity in Albino mouse assessed as increase in motor activity by measuring increase in number of square crossing at […], po administered through intragastric tube measured after 40 mins by open field test
Assay type: functional, organism-based
Calls of active or inactive are those of the source. The rule behind the calls is not given here.
Outcome codes: active, inactive

[[record]]
compound = "CCCC(C)c1c(O)nc(SCCN(C)C)[nH]c1=O (stereo not drawn)"
discretelabel = "active"

[[record]]
compound = "CCN(CC)CCSc1nc(O)c(CCC(C)C)c(=O)[nH]1"
discretelabel = "active"

[[record]]
compound = "CSCCc1c(O)nc(SCCN(C)C)[nH]c1=O"
discretelabel = "inactive"

[[record]]
compound = "CCN(CC)CCSc1nc(O)c(CCSC)c(=O)[nH]1"
discretelabel = "active"

[[record]]
compound = "CSCCc1c(O)nc(SCCN2CCCC2)[nH]c1=O"
discretelabel = "inactive"

[[record]]
compound = "CCCC(C)c1c(O)nc(SCCN2CCCC2)[nH]c1=O (stereo not drawn)"
discretelabel = "inactive"

[[record]]
compound = "CSCCSc1nc(O)c(C(C)C)c(=O)[nH]1"
discretelabel = "active"

[[record]]
compound = "CC(C)c1c(O)nc(SCCN2CCCC2)[nH]c1=O.Cl"
discretelabel = "active"

